Readings of PBM binding z-score for the listed sequences
# Test system: LXRb:RXRa (NR concentration 270 nM, RXRa partner concentration 90 nM)
# Assay: PBM binding z-score (relative to random genomic background probes); higher = stronger binding; sequences stand for … in GC…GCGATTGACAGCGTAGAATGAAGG
Answer with a bare number; do not write a unit.

[
  {
    "Sequence Chain": "TCATATAGGTAAGGGTGAAAGTCGAACGATATGA",
    "PBM binding z-score": 0.694
  },
  {
    "Sequence Chain": "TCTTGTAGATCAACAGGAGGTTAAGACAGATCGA",
    "PBM binding z-score": 0.737
  },
  {
    "Sequence Chain": "CCTACTGGGCCACGAAAGGTCAATGATTCAGTGA",
    "PBM binding z-score": 3.95
  },
  {
    "Sequence Chain": "CCGACTGGGGCGGAAAGGTTACCATACCATCCGG",
    "PBM binding z-score": 1.23
  },
  {
    "Sequence Chain": "GATACAGGGTCACCTAGAGGCCAGAGTATGGAAA",
    "PBM binding z-score": 3.99
  },
  {
    "Sequence Chain": "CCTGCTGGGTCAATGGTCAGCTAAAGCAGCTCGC",
    "PBM binding z-score": 1.11
  },
  {
    "Sequence Chain": "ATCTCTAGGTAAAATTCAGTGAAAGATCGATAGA",
    "PBM binding z-score": 0.121
  },
  {
    "Sequence Chain": "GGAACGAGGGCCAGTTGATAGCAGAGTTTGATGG",
    "PBM binding z-score": -1.21
  }
]

Inquiry: Hi! What's the reported PBM binding z-score for GCTAATTGGTCAGTAAAAGGTCACACACCGGTCG on LXRb:RXRa (NR concentration 270 nM, RXRa partner concentration 90 nM)?
Reply text: 4.41

Inquiry: Another: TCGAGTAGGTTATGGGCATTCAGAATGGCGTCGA
Reply text: -0.2

Inquiry: Subsequent entry: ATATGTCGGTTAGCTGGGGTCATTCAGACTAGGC
Reply text: 4.36

Inquiry: Subsequent entry: TCATATAGGTATATGCTAGGTGAAAGTCCGATCT
Reply text: 0.545

Inquiry: Repeat for the following sequence: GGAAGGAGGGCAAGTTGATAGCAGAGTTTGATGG
Reply text: 1.5

Inquiry: What would you report for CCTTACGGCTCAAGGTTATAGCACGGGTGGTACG ?
Reply text: 0.126

Inquiry: And for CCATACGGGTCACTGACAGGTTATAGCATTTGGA ?
Reply text: 3.31

Inquiry: What would you report for TGTATTAGTTGAAGGGCAACCGACGAGTCCGTTT ?
Reply text: 0.491

---

# System: RARb:RXRa (NR concentration 270 nM, RXRa partner concentration 90 nM)
# Assay: PBM binding z-score (relative to random genomic background probes); higher = stronger binding; sequences stand for … in GC…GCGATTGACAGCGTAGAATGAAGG
Quick rule: PBM binding z-score of at least 3 means criterion met, below that means criterion not met.

[
  {
    "Sequence Chain": "ATATGTAGGTTACATCAGGGTCATTCAGGCTATG",
    "Label Value": "criterion not met"
  },
  {
    "Sequence Chain": "TCATATAGGTAATACGGGTGAAAGTCGGCATCTA",
    "Label Value": "criterion not met"
  },
  {
    "Sequence Chain": "TCGAGTAGGTTAGTCGGGGCATTCATCCAACATA",
    "Label Value": "criterion not met"
  },
  {
    "Sequence Chain": "GCAGACAGGTGACACGCAGGTAACTCAGGGTGGC",
    "Label Value": "criterion not met"
  },
  {
    "Sequence Chain": "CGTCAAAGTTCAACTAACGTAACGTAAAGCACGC",
    "Label Value": "criterion met"
  }
]

With those in mind, consider the next sequence.
Inquiry: Is PBM binding z-score at least 3? Consider CAGGCTAGGTCAGGGCCAGTATAGGAGGAACGTT
Reply text: criterion met

Reference source for all entries: the supplement of paper PMC6555819
